B1: VH:VL chains; a variant is named by its letters at X, in order (parent)
chain 1: QVQLVQSGAEVKKPGASVKVSCKASGYTFTDYXMHWVRQAPGQGLEWMGXVNPNXXXTTYNQKFEGRVTMTTDTSTSTAYMELRSLRSDDTAVYYCARXNXLDXWGQGTTVTVSS
chain 2: DIQMTQSPSSLSASVGDRVTITCSVSSSVSSIYLHWYQQKPGKAPKLLIYSTSNLASGVPSRFSGSGSGTDFTLTISSLQPEDFATYYCQVYSGYPLTFGGGTKVEIK

variants of: B1; test: yeast display scFab, FACS + sequencing
Result type: non-specific binding call

Recorded non-specific binding call, per entry:
VERKGYLA    binds
YRGGDDSV    no binding
FRGGSAVY    binds
VETGNSLV    no binding
DAGRSDLV chain 1 R67H    no binding
VRGGGFGV    no binding
VKETSVLF    binds
VKTGGDVY    no binding

Each of the following entries comes with a recorded value; kindly state non-specific binding call for each.
1. SKRRSVGA
2. DRAGDDGA
3. VKGRSFLV
4. VTGEDDAV
5. VKEKGAWV
6. YARGGDLD
7. DEGGDDAA

[out]
1: binds; 2: no binding; 3: binds; 4: no binding; 5: binds; 6: no binding; 7: no binding

Hey, quick one: what's non-specific binding call for each of these?
1. VGRGNVGV
2. SGETGDSV
3. YAGRGDVS
4. SEEEGDAV
5. SEARSDSF
6. VGTKGDAA
7. VKRGSAAV

[out]
1: binds; 2: no binding; 3: no binding; 4: no binding; 5: no binding; 6: no binding; 7: binds
